Experiment: yeast display, Sf9 membrane polyspecificity reagent, FACS + sequencing; frameworks hold sequencing errors
readout: polyreactivity (PSR sort gate)

[[record]]
residue_sequence = "QVQLVESGGGLVQAGGSLRLSCAASGTFVTYMGWYRQAPGKERELVAAIRNGGSTNYADSVKGRFTISRDNAKNTVYLQMNSLKPEDTAVYYCAADRAGSIMNYWGQGTQVTVSS"
readout = "polyreactivity (PSR sort gate)"
measured_value = "low polyreactivity"

[[record]]
residue_sequence = "QVQLVESGGGLVQAGGSLRLTCDASGGIFAVNVMGWYRQAPWKERELVAAITSTGSTYYADSVKGRFTISRDNAKNTVYLQMNSLTPEDTAVYYCAADYVYYDSYDDTVFGYDYWGQGTQVTVSS"
readout = "polyreactivity (PSR sort gate)"
measured_value = "high polyreactivity"

[[record]]
residue_sequence = "QGQLVESGGGLVQAGGSLRLSCAASGRIFGHYAMGWYRQAPGKERELVAAISQSGTNTYYADSVKGRFTISRDNAKNTVYLQMNSLKPEDTAVYYCAAKPPRRYQLMDYWGQGTQVTVSS"
readout = "polyreactivity (PSR sort gate)"
measured_value = "high polyreactivity"

[[record]]
residue_sequence = "QVQLVESGGGLVQAGGSLRLSCAASGRTFEQNAMGWYRQAPGKEREFVAAITASSGRTSYADSVKGRFTISRDNAKNTVYLQMNSLKPEDTAVYDCAADLADRERRHNYWGQGTQVTVSS"
readout = "polyreactivity (PSR sort gate)"
measured_value = "low polyreactivity"

[[record]]
residue_sequence = "QVQLVESGGGLVQAGGSLRLSCAASGSLFKYYAMGWYRQAPGKERELVAAITIGGNTNYADSVKGRFTISRDNAKNTVYLQMNSLKPEDTAVYYCATGGYYSAIVYGGYDYWGQGTQVTVSS"
readout = "polyreactivity (PSR sort gate)"
measured_value = "low polyreactivity"

[[record]]
residue_sequence = "QVQLVESGGRLVQAGGSLRLSCAASGRTFVYNAMGWYRQAPGKESELVAAISSGGGTNYADSVKGRFTISRDNAKNTVYLQMNSLKPEDTAVYYCAAGFDGSRHPGFDSWGQGTQVTVSS"
readout = "polyreactivity (PSR sort gate)"
measured_value = "low polyreactivity"

[[record]]
residue_sequence = "QVQLVESGGGLVQAGCSLRLSCAASGITFVPYAIGWYRQAPGKDRELVAAITGGGSTNYADSVKGRFTISRDNAKNTVYLQMNSLNQEDTAVYYCAKHAYGYYYSRSDYWGQGTQVTVSS"
readout = "polyreactivity (PSR sort gate)"
measured_value = "low polyreactivity"

[[record]]
residue_sequence = "QVQLVESVGGLVQAGGSLRLSCAASGSIFVTNAMGWYRQAPGKERELVAAISSGGNTNYADSVKGRFTISRDNAKNTVYLQMNSRKPEDTAVYYCAKDPDKVDYVDMDYWGQGTQVTVSS"
readout = "polyreactivity (PSR sort gate)"
measured_value = "low polyreactivity"

[[record]]
residue_sequence = "QVQLVESGGRLVQAGGSLRLICAASGITYYEYAMGWYRQAPGKERELVAAITSGGTTNYADSVNGRFTISLDNAKNTVYLQMNSLKPEDTAVYFCAADLIGYSYPDEYYGKGEYDYWGQGTQVTVSS"
readout = "polyreactivity (PSR sort gate)"
measured_value = "low polyreactivity"

[[record]]
residue_sequence = "QVQLVESGGGLVQAGGSLRLSCAASGRIFYRNGMGWYRQAPGKERELVAAISYSGGRTYYADSVKGRFTISRYNAKNTVYLQMNSLKPEDTAVYYCAAQWFEDFLYPWLEYDYWGQGTQVTVSS"
readout = "polyreactivity (PSR sort gate)"
measured_value = "high polyreactivity"


Then this sequence:
Value of polyreactivity (PSR sort gate) reported for the sequence QVQLVESGGGLVQAGGSLRLSCAASGRTFEGNAMGWYRQAPGKERELVAAISWSGGSTYYANSVKGRFTISRDNAKNTVYLQMNSLKPEDTAVYYCAAVPVHTGSLYWGFTTGYDYWGQGTQVTVSS is low polyreactivity

###

Test: yeast display, Sf9 membrane polyspecificity reagent, FACS + sequencing; frameworks hold sequencing errors
readout: polyreactivity (PSR sort gate)

[[record]]
residue_sequence = "QVQHVESGGGLVQAGGSLRLSCSASGITLPGSAIGWYRQAAGKVREFVAAISTSGGSTYYADSVKGRFTISRDYAKNTVYLQMNSLKPEDTAVYYCNARLVYYSYEEMDYWGQGTQVTVSS"
measured_value = "low polyreactivity"

[[record]]
residue_sequence = "QVQLVESGGGLVQAGGSLRLSCAASGLTFDTYAMGWYRQAPGKERELVAAISIGGRTNYADSVKGRFTISRDNAKNTVYLQMNSLKPEDTAVYYCAVGAVVPGRRRRTYYYWGQGTQVTVSS"
measured_value = "high polyreactivity"

[[record]]
residue_sequence = "QVQLVESGGGLVQAGGSLRLSCAASGIIFKYYAMGSYRQAPGKERELVAAITRSGGSTYYADSVKGRFTISRDNAKNTVYLQMNSLKPVDTGVYYCAAQTGYSYGITWQFTKYNYWGQGTQVTVSS"
measured_value = "low polyreactivity"

[[record]]
residue_sequence = "QVQLVESGGGLVQAGGSLRLSCAASGFTFSFYAMGWYRQAPGKERELVAGISKRGGSTYYADSVKGRFTISRDNAKNTVYFLMNSLNPEDTAVYYCAARWYARSLTRFNYWGQGTQVTVSS"
measured_value = "high polyreactivity"


Then this sequence:
Value of polyreactivity (PSR sort gate) reported for the sequence QVQLVESGGGLVQAGGSLRLSCAASGSIFGFYAMGWYRQAPGKERELVAAITFSGGSTDYADSVKGRFTISRDNAKNTVYLQMNSLKPEDTAVYYCAARGYAIYSYWYYEPYDYWGQGTQVTVSS is high polyreactivity

###

Test: yeast display, Sf9 membrane polyspecificity reagent, FACS + sequencing; frameworks hold sequencing errors
readout: polyreactivity (PSR sort gate)

Recorded results for 4 sequences are shown here.
[[record]]
residue_sequence = "QVQLVESGGGLVQAGGSLRLSCAASGSTLSKNAMGWYRQAPGKERELVAAMTRRGGSTSYADSVKGRFTMSRDYAKNTVYLQMNSLKPEDTAVYYCNAVSKYDYGYWGQGTQVTVSS"
measured_value = "high polyreactivity"

[[record]]
residue_sequence = "QVQLVESGGGLVQAGGSLRLSCAASGSTFVRYAMGWYRQAPGKERELVAAISNGGNTYYADSVKGRFTISHDNAKNTVYLQMNSLKPEDTAVYYCNKGYVYGHEYWGQGTQVTVSS"
measured_value = "high polyreactivity"

[[record]]
residue_sequence = "QVQLVESGGGLVQAGGSLRLSCAASGSTFWVYTMGWYRQAPGKERALVAAINYSDGSTYYADSVKGRFTISRENAKNTVYLQMNSLKPEDTAVYYCAAGSDPTGRRYEYWGQGTQVTVSS"
measured_value = "low polyreactivity"

[[record]]
residue_sequence = "QVQLVESGGGLVQAGGSLRLSCAAYGSIFDSNTMGWYRQAPGKERELVAGISTGGSTNYADSVKGRFTISRDNAKNTVYLQMNSQKPEDTAVYYCNADLGSSYDWGQGTQVTVSS"
measured_value = "low polyreactivity"


Value of polyreactivity (PSR sort gate) reported for the sequence QGHLDESGGGIVQAGGSLRLSCAASGITVVTYAMGWYRQAPGKERELVAAISRSGGRTYYADSVKGRFTISRDNAKNTVYLLMNSLKPEDTAVYYCAAERKNKYDYWGQGTQVTVSS is high polyreactivity

###

Test: yeast display, Sf9 membrane polyspecificity reagent, FACS + sequencing; frameworks hold sequencing errors
readout: polyreactivity (PSR sort gate)

[[record]]
residue_sequence = "QVQLVESGGGLVQAGGSLRLSCAASGGIFTIYAMGWYRQAPGKETELVASITGGSGSTYYADSVKGRFTISRDNAKNTVYLQMNSLKPEDTAVYYCARETYRRYGAYDYWGQGTQVTVSS"
measured_value = "low polyreactivity"

[[record]]
residue_sequence = "QVQLVESGGGLVQAGGSLRLSCAASGIIFAWNTMGWSRHPPGKERELVAAISSSGGSTYYADSVKGRFTISRDNAKNTVYLQMNSLKPEDTAVYYCAADGYHWIHEYDYWGQGTQVTVSS"
measured_value = "low polyreactivity"

[[record]]
residue_sequence = "QVQLVESGGGLVQAGGSLRLSCAASGLIFVRYAMGWYRQAPGKERELVAAISRGGTTYYADSVKGRFTISRDNAKNTVYLQMNSLKPEDTAVYYCAVGIRYSKDYYYWGQGTQVTVSS"
measured_value = "high polyreactivity"

[[record]]
residue_sequence = "QVQLVESGGGLVQAGGSLRLSCAASGFIISYYAMGWYRQAPGKDRELVAAISWRGGSTYYADSVKGRFTISRDNAKNTVYLQMNSLKPEDTAVYYCAADFLYGAEGNDYWGQGTQVTVSS"
measured_value = "high polyreactivity"

[[record]]
residue_sequence = "QVQLVETGGGLVQAGGSLRLSCAASGSIFYYNTMGWYRQAPGKERELVAAISRSGTSTFYADSVKGRFTISRHNAKNTVYLQMNSLKPEDTAVYYCNAESLGWYRLYTVDYWGQGTQVTVSS"
measured_value = "low polyreactivity"

[[record]]
residue_sequence = "QVQLVESGGGLVQAGGSLRLSCAASGSIFDYNAMGWYRQAPGKEREFVAAISSSAGSTYYADSVKGRFTISRDNAKNTVYLEMNSLKPEDTAVYYCAADWYDFSFPYYEYEYWGQGTQVTVSS"
measured_value = "low polyreactivity"

[[record]]
residue_sequence = "QVQLVESGGGLVQAGGSLRLSCAASGIIFRGYPMGWYRQAPGKERELVARISITGGRTYYADSVKGRFTSSRDNAKNTVELQMNSLKPEDTAVYYCAAGKYVSTVRYDYWGQGTQVTVAS"
measured_value = "high polyreactivity"

[[record]]
residue_sequence = "QVQLVESGGGLVQAGGSLRLICAPSGSIFTYYAMGRYRQAPGKEKELVAAISQSGGTTYYADSVKGRFTISRDNAKNTVYLQMNSLKPEDTAVSYCAARAPSSFDTQYYYWGQGTQVTVSS"
measured_value = "low polyreactivity"

[[record]]
residue_sequence = "QVQLVESGGGLVQAGGSLRLSCAASGFTFVGNAMGWYRQAPGKERELVAAIRWSSGSTYYADSVKGRFTISRDNAKNTVYLQMNSLKPEDTAVYYCNAVYSVFYEYDYCGQGTQVTVSS"
measured_value = "low polyreactivity"

[[record]]
residue_sequence = "QVQLVESGGGLVQAGGSLRLSCAASGLTFLWYAMGWYRQAPGKERELVAAITSGGRTKYADSVKGRFTISRDNAKNTVYLQMNSLKPEDTAVYYCAAYTQWWGYDYWGQGTLVTVSS"
measured_value = "high polyreactivity"


Then this sequence:
Value of polyreactivity (PSR sort gate) reported for the sequence QVQLVESGGGLVQAGGSLRLSCAASGSTFYEYAMGWYRQAPGKERELVAAISSGGSTYYADSVKGRFTISRDNAKNTVYLQMNSLKPEDTAVYYCNADCQTYGGEYDYWGQGTQVTVSS is low polyreactivity
